- MEASURED_TARGET: Gastrin/cholecystokinin type B receptor (Mus musculus)
- Sequence (P56481 whole entry): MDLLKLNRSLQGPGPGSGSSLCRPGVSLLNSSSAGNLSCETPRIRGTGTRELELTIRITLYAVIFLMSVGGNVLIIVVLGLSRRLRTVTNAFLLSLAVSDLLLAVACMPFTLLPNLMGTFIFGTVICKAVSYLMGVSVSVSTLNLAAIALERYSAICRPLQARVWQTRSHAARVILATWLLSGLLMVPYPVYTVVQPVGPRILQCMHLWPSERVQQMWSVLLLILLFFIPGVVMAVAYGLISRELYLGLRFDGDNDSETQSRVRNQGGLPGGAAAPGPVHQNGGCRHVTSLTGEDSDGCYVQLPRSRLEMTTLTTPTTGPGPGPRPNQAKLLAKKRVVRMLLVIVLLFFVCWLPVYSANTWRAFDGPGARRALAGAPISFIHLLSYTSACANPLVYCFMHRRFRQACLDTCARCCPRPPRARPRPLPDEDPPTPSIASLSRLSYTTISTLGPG
pKi: −log10 of the molar value.
QUANTITY_MEASURED: pKi

1. O=C(O)C1C2c3ccccc3C(c3ccccc32)C1C(=O)NCC12CC3CC(CC(C3)C1)C2 (stereo not drawn): 6.27
2. O=C(O)c1cc(NC(=O)[C@H](Cc2ccccc2)NC(=O)c2cc3ccccc3cc2C(=O)NCC23CC4CC(CC(C4)C2)C3)cc(C(=O)O)c1: 7.88
3. O=C(O)c1cc(NC(=O)[C@H](Cc2ccccc2F)NC(=O)c2cc3[nH]cnc3cc2C(=O)NCC2CCCCCC2)cc(C(=O)O)c1: 8.12
4. O=C(O)c1cc(NC(=O)[C@H](Cc2ccccc2F)NC(=O)c2cc3cc[nH]c3cc2C(=O)NCC23CC4CC(CC(C4)C2)C3)cc(C(=O)O)c1: 9.13
5. O=C(O)c1cc(NC(=O)[C@H](Cc2ccccc2)NC(=O)c2cc3cc[nH]c3cc2C(=O)NCC2CCCCCC2)cc(C(=O)O)c1: 7.82
6. O=C(O)c1cc(NC(=O)[C@H](Cc2ccccc2F)NC(=O)c2cc3[nH]cnc3cc2C(=O)NCC23CC4CC(CC(C4)C2)C3)cc(C(=O)O)c1: 8.35
7. O=C(NCC12CC3CC(CC(C3)C1)C2)c1cc2[nH]ccc2cc1C(=O)N[C@@H](Cc1ccccc1)C(=O)Nc1cc(-c2nn[nH]n2)cc(-c2nn[nH]n2)c1: 8.92
8. O=C(O)c1cc(NC(=O)[C@H](Cc2ccccc2)NC(=O)c2cc3[nH]ccc3cc2C(=O)NCC23CC4CC(CC(C4)C2)C3)cc(C(=O)O)c1: 7.87

----------
- MEASURED_TARGET: UniProt Q63931
- Sequence (Q63931 whole entry): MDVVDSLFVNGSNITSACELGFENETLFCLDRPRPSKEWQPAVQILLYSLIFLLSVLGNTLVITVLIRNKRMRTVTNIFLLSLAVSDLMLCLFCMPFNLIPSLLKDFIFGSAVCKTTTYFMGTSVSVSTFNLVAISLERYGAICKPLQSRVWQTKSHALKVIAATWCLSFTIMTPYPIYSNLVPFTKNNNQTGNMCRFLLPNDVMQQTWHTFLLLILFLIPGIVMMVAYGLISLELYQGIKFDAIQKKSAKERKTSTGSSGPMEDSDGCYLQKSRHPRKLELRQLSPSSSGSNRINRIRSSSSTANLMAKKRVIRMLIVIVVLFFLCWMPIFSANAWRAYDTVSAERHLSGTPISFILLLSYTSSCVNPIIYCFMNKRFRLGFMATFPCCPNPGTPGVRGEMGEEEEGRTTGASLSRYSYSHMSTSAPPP
- METHOD_SUMMARY: In vitro inhibitory activity against Cholecystokinin type A receptor using [125I]BH-CCK-8S as radioligand in guinea pig pancreatic cells
Could you mark each record t if its Ki falls strictly under 3 µM, and f if it equals or exceeds it?

1. O=C(O)c1cc2ccccc2cc1C(=O)NCC12CC3CC(CC(C3)C1)C2: f
2. O=C(O)c1cc(NC(=O)[C@H](Cc2ccccc2)NC(=O)c2cc3cc[nH]c3cc2C(=O)NCC2CCCCCC2)cc(C(=O)O)c1: f
3. O=C(NCC1CCCCCC1)c1cc2nc[nH]c2cc1C(=O)N[C@@H](Cc1ccccc1F)C(=O)Nc1cc(-c2nn[nH]n2)cc(-c2nn[nH]n2)c1: t
4. O=C(O)c1cc(NC(=O)[C@H](Cc2ccccc2)NC(=O)c2cc3[nH]cnc3cc2C(=O)NCC23CC4CC(CC(C4)C2)C3)cc(C(=O)O)c1: t
5. O=C(NCC12CC3CC(CC(C3)C1)C2)c1cc2[nH]ccc2cc1C(=O)N[C@@H](Cc1ccccc1)C(=O)Nc1cc(-c2nn[nH]n2)cc(-c2nn[nH]n2)c1: t
6. O=C(O)c1cc(NC(=O)[C@H](Cc2ccc(O)cc2)NC(=O)c2cc3[nH]cnc3cc2C(=O)NCC23CC4CC(CC(C4)C2)C3)cc(C(=O)O)c1: t
7. O=C(NCC12CC3CC(CC(C3)C1)C2)C1C2c3ccccc3C(c3ccccc32)C1C(=O)N1CCC[C@@H]1C(=O)O (some centres undefined): f
8. O=C(O)c1cc(NC(=O)[C@H](Cc2ccccc2)NC(=O)c2cc3ccsc3cc2C(=O)NCC23CC4CC(CC(C4)C2)C3)cc(C(=O)O)c1: t
9. O=C(O)c1cc(NC(=O)[C@H](Cc2ccccc2)NC(=O)c2cc3cc[nH]c3cc2C(=O)NCC23CC4CC(CC(C4)C2)C3)cc(C(=O)O)c1: f
10. O=C(O)c1cc(NC(=O)[C@H](Cc2ccccc2)NC(=O)c2cc3ccoc3cc2C(=O)NCC23CC4CC(CC(C4)C2)C3)cc(C(=O)O)c1: f
11. O=C(O)c1cc(NC(=O)[C@H](Cc2ccccc2F)NC(=O)c2cc3cc[nH]c3cc2C(=O)NCC23CC4CC(CC(C4)C2)C3)cc(C(=O)O)c1: f
12. O=C(O)c1cc(NC(=O)[C@H](Cc2ccccc2F)NC(=O)c2cc3[nH]cnc3cc2C(=O)NCC2CCCCCC2)cc(C(=O)O)c1: f
13. O=C(NCC12CC3CC(CC(C3)C1)C2)c1cc2nc[nH]c2cc1C(=O)N[C@@H](Cc1ccccc1)C(=O)Nc1cc(-c2nn[nH]n2)cc(-c2nn[nH]n2)c1: t
14. O=C(NCC12CC3CC(CC(C3)C1)C2)c1cc2ccccc2cc1C(=O)N1CCC[C@@H]1C(=O)O: f
